The values you see were collected from patent US20160130351A1.

target: T1, carrier-free soluble human IL-6R (R&D) (human, UniProt P08887 20-365)
T1 construct: extracellular domain; also called shuIL-6R; shuIL6-R
T1 sequence (looked up): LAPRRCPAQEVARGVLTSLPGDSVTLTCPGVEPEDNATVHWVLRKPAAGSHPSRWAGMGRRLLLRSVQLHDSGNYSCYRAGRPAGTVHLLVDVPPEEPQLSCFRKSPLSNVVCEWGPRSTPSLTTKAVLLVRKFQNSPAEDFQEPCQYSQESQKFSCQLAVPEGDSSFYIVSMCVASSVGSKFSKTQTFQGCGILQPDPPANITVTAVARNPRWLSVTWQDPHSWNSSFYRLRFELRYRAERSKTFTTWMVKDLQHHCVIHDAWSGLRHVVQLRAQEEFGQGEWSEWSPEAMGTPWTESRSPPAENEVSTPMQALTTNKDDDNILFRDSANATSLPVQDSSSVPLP
experiment: SPR (Biacore 2000), mAb captured on anti-human IgG Fc, analyte in solution, 25 C, 1:1 Langmuir
property_label: koff

binder: NI-1201-C antibody (antibody, V domains shown) VH: QVQLVQSGAEVKKPGSSVKVSCKASGGTFSSYAISWVRQAPGQGLEWMGGIIPAFETTKYAQKFQGRVTITADESTSTAYMELSSLRSEDTAVYYCARDRDILTDYYPLGGMDVWGQGTTVTVSS VL: AIQLTQSPSSLSASVGDRVTITCRASQGISSVLAWYQQKPGKAPKLLIYDASSLESGVPSRFSGSGSGTDFTLTISSLQPEDFATYYCQQSNSYPLTFGGGTKVEIKR
result: 0.00011 s⁻¹
